Each entry below carries its reported protein stability index.
- PROTOCOL_NOTES: protein stability index of a GFP-peptide fusion (yeast GPS) (PSI 1-4); higher = more stable; sorted into four equal gates, so the index is relative within each strain
- RUN_PARAMETERS: san1∆
Write the value as a bare number.

Return protein stability index (reported value) for this sequence: MMTRRVVMAMYNPKMID [RET1] 2.62

Return protein stability index (reported value) for this sequence: LKNMLYVLSTAVEFESV [BRR2] 1.88

Return protein stability index (reported value) for this sequence: KACKTADKLVNVTQNEQ [SRP68] 3

Return protein stability index (reported value) for this sequence: KNVNIEDITEPKPDKPS [ESC2] 2.51

Further cases:
Return protein stability index (reported value) for this sequence: NHVMPLKPVDKLKPMNI [SIN4] 2.83

Return protein stability index (reported value) for this sequence: GISEVQARKSKSVSFYA [RPT5] 3.37
